B1: tRNA (parent)
chain: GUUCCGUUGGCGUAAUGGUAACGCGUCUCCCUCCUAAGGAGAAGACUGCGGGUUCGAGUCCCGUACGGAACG

variants of: B1; test: yeast fitness relative to wild type (ratio to wild type); higher = fitter; tRNA-Arg(CCU), competitive growth, 37 C, YPD
This sample holds only a part of the variants without activity.
Returns one of y or n; y when yeast fitness is >= 0.7.

Recorded results for 5 variants are shown here.
>  <macromoleculeSequence>
GCUCCAUUGGCGUAAUGGUAACGCGUCUCCCUCCUAAGGAGAAGACUGCGGGUUCGAGUCGCGUACGGAACG

>  <classAssignment>
n

$$$$
>  <macromoleculeSequence>
GUUCCGUUGGCGUAAUGGUAACGCGUCUCGCUGUUAAGGAGUAGACUGCGGGUUCGAGUCCCGUAUCGAACG

>  <classAssignment>
n

$$$$
>  <macromoleculeSequence>
GCUCCAUUGGCGUAAUGGUAACGCGUCUCCCUCCUAAGGAGAAGACUGCGGGUUCGUGUCCUGUACGGAACG

>  <classAssignment>
n

$$$$
>  <macromoleculeSequence>
GUUCCGUUGGCGUAAUGGUAACGCGUCUCCCUCAUAAGGAAAAGACUGCGGGUUGGAGUCCCGUACGGAACG

>  <classAssignment>
n

$$$$
>  <macromoleculeSequence>
GUUCCGUUGGCGUAAUGGUAACGCGUCUCGUUCCUAAGGAGAAGACUGCGGGUUCGAGUCCCGUACGGAACG

>  <classAssignment>
n

$$$$

# evaluate next
Answer whether yeast fitness of "GUUCCGUUGGCGUAAUGGUAACGUGUCUCCCUCCUAAGGAGUAGACUGCGCGUUCGAGUCCCGUACGGAACG" is greater than or equal to 0.7. n
